Numbers sourced from a melting point compilation (Tetko et al.; mined from patent text by program, amines drawn as free bases though some values may be those of a salt).

Entries annotated with measured melting point

Example entries begin here.
CCCCCCCCCCCCCCC(F)CC(NC(C)=O)(C(=O)OCC)C(=O)OCC (centres undefined)
71 to 73 °C
COC1C(O)CCC(O)(CSc2ccccc2)C1C1(C)OC1CC=C(C)C (centres undefined)
94 to 96 °C
CCC(CC)Oc1nc(C)nc(Oc2c(C)cc(C)cc2C)c1C
93.5 to 95.5 °C

Noted for CCCCCCNC(=O)C(CCC(=O)O)NC(=O)C(NC(=O)OC(C)(C)C)C(C)C (centres undefined) : its melting point reads 63 to 65 °C

Noted for O=C(CCc1ccccc1)Nc1ccc([N+](=O)[O-])cc1 : its melting point reads 117 to 119 °C

Noted for N=C(NO)c1cccc(COC(=O)c2cc3ccccc3n2Cc2cccc(C(=N)NO)c2)c1 : its melting point reads 114 to 116 °C

Noted for Cc1ccc(C2c3c(C)c(Br)c(C)c(C=O)c3OC2(C)C)cc1 (centres undefined) : its melting point reads 128 to 130 °C

Noted for CCCC(NOCC)=C1C(=O)CC(C2=C(C)CCCC2(C)C)C(C(=O)OC)C1=O (centres undefined) : its melting point reads 70 °C

Noted for Oc1nc2cc(Cl)ccc2n2cnnc12 : its melting point reads > 300 °C

----------
observable: melting point

Example entries begin here.
NC(=O)Nc1nc2c(s1)-c1c(cnn1-c1ccccc1)CC2
321 to 325 °C
COC(=O)C=CC=Cc1ccccc1CNC(=O)OC(C)(C)C
96 to 97.5 °C
CC(C)(C)OC(=O)N1CCC(c2cnc3oc(-c4ccc(C(F)(F)F)cc4)nc3c2)CC1
184 to 188 °C
O=C(O)C[C@H]1CCCCN1C(=O)C=Cc1c(-c2ccccc2)nn2ccccc12
165 to 166 °C
COc1ccccc1N1CCN(CCn2c(=O)c3cscc3n(C)c2=O)CC1
167 to 168 °C

Noted for COc1ccccc1-c1ccc(C(=O)N2Cc3ccc(C(=O)NCCc4ccc(O)cc4)n3Cc3ccccc32)cc1C : its melting point reads 138 to 147 °C

Noted for NC(=O)c1ncn2c1[C@@H]1CCCN1C(=O)c1sccc1-2 : its melting point reads 222 to 223 °C

Noted for O=C(O)c1cc(-n2c(-c3ccccc3)cc3c2CCCC3)c(C(F)(F)F)cc1O : its melting point reads 188 to 190 °C

Noted for CCc1cn(C2OC(CN)C(O)C2F)c(=O)[nH]c1=O (stereo not given) : its melting point reads 194 to 214 °C

Noted for COc1cc(C)c(C(=O)c2c(Cl)cccc2Cl)c(O)c1OC : its melting point reads 161 °C

Noted for O=C(O)C1(C(=O)O)CCOCCOCCOCCOCC1 : its melting point reads 107 to 111 °C

Noted for CCC(CC)c1ccc(Cl)c2nc(Nc3ccc(Br)cc3C)n(CCCCO)c12 : its melting point reads 151 to 152 °C

Noted for Nc1ccc(-c2nc3ccccc3s2)cc1Cl : its melting point reads 160 to 162 °C

Noted for CC1(C)CCC(C)(C)c2cc(C(=O)c3ccccc3C=O)ccc21 : its melting point reads 145 °C

Noted for Cn1cc(-c2cc(-c3ccsc3)ccn2)n(-c2ccc(C(C)(C)C#N)cc2)c1=O : its melting point reads 209 °C

----------
observable: melting point

Example entries begin here.
O=C(C(=O)c1ccn(CC(F)(F)F)c1)c1cccc(Br)c1
105 to 106 °C
Cn1cc(C(=O)Nc2ccccc2-c2ccc(C(F)(F)F)cc2)c(C(F)F)n1
164 to 165 °C

Noted for O=C(O)c1cccc(-c2cccc(Oc3cccc(Cl)c3Cl)n2)c1 : its melting point reads 216 to 217 °C

----------
Entries annotated with measured melting point

Nc1nc(S(N)=O)c2[nH]cnc2n1 (stereo not drawn)
> 250 °C
COc1ccc(Nc2nc(Cl)nc(NCCO)n2)cc1
169 to 173 °C

Noted for COc1cc(C(=O)Cc2ccccc2)cc([N+](=O)[O-])c1O : its melting point reads 129 to 130 °C

Noted for CC1CC(=O)c2c(C(=O)Nc3ccc4c(c3)OC(C)(C)O4)c[nH]c2C1 (stereo not drawn) : its melting point reads 297 to 299 °C

Noted for CNC(=O)C(SC)c1cc(Cl)cc(C(=O)c2ccccc2)c1N (stereo not drawn) : its melting point reads 170 to 171 °C

Noted for O=C1COc2ccc(CCCCCCc3ccc4c(c3)NC(=O)CO4)cc2N1 : its melting point reads 219 to 225 °C

Noted for C[C@H](NC(=O)OCc1ccccc1)C(=O)Nc1ccc(S(N)(=O)=O)cc1 : its melting point reads 245 to 246 °C

Noted for C=Cn1nnn(-c2cc(OC)c(Cl)cc2Cl)c1=O : its melting point reads 142 to 143 °C

----------
observable: melting point

O=C1NC(=O)c2c1cc1ccc3c(c1c2-c1ccc(C(F)(F)F)cc1)OCO3
304 to 306 °C
Cc1nc(Nc2c([N+](=O)[O-])cc([N+](=O)[O-])cc2C(F)(F)F)c(Cl)c(C)c1Cl
131 to 133 °C
O=C(NCCc1nc(-c2ccncn2)cc(=O)[nH]1)OCc1ccccc1
252 to 254 °C

Noted for COc1cc2c(c(OC)c1OC)COc1c(C(F)(F)F)nn(-c3ccc(S(N)(=O)=O)cc3)c1-2 : its melting point reads 130 °C

Noted for CCOC(=O)C1=C(C)Nc2ccnc(OC(C)C)c2C1c1cccc2c1OCO2 (configuration not stated) : its melting point reads 156 to 158 °C

Noted for O=C(N1CCOCC1)n1nnc2cc(Cl)c(Cl)cc21 : its melting point reads 145 °C

Noted for CCc1c(N)c(C(N)=O)nn1C[C@H]1CCCN1C : its melting point reads 130 to 133 °C

----------
observable: melting point

Example entries begin here.
C#Cc1ccc(Oc2ccc(C(=O)C(=O)c3cccc(C(=O)C(=O)c4ccc(Oc5ccc(C#C)cc5)cc4)c3)cc2)cc1
120 to 121 °C
O=C(CS(=O)(=O)N1CC=C(c2ccc(-c3ccccc3)cc2)CC1)NO
216 to 218 °C
N=C(Nc1cccc(NC(=O)/C=C/c2ccc(Cl)cc2)c1)c1ccccc1
109 to 110 °C

Now look at this entry.
Noted for Cc1c(CCC(=O)O)ccc2c3ccccc3n(Cc3ccccc3)c12 : its melting point reads 160 to 162 °C

----------
observable: melting point

Example entries begin here.
O=C(N1CCOCC1)C1(c2onc(-c3ccc(O)cc3)c2-c2ccccc2)CC1
195 to 196 °C
CC(=O)c1ccc(CNC(=O)c2cccnc2Oc2ccc3nonc3c2)cc1
154 to 156 °C
Cc1ccc(NC(=O)c2ccc(C(=O)Nc3ccccc3N)cc2)cc1Nc1nc(-c2cccnc2)cs1
147 °C

Noted for O=C(O)CCCc1ccc(NS(=O)(=O)c2ccccc2)cc1 : its melting point reads 128 to 130 °C

Noted for Oc1c2c(nn1-c1ccccn1)CCc1cc(-c3ccc4c(c3)OCO4)ccc1-2 : its melting point reads 205 to 206 °C

Noted for Cc1cc(OCC2CO2)c2cc(C(=O)N(C)C)[nH]c2c1 (stereo not given) : its melting point reads 197 to 204 °C

Noted for CCC=Nc1cc(CO)cc(Nc2c3ccccc3nc3ccccc23)c1 : its melting point reads 262 to 263 °C

Noted for NC(=O)c1c(Cl)cn2c1CN(S(=O)(=O)c1ccc(C(F)(F)F)cc1)CC2 : its melting point reads 159 to 160 °C

Noted for CCOC(=O)CCc1c(O)ccc2c(=O)c3cc(C(=O)OC)ccc3oc12 : its melting point reads > 215 °C

Noted for COc1ccc(NC2=NC(C)(C)Cc3cc(OC)c4c(c32)CC(C)(C)O4)cc1 : its melting point reads 139 to 140 °C

----------
observable: melting point

Example entries begin here.
O=C(O)/C(=C\c1ccccc1)CC(=O)N1C[C@H]2CCCC[C@H]2C1
126 to 128 °C
NC(=O)c1cccc(-c2ccnc(C(=O)N(O)Cc3ccccc3)c2)c1
158 to 162 °C
CCOc1cnc(C)c(S(=O)(=O)c2ccc(OCc3ccccc3)cc2)c1
133 to 134 °C

Noted for Nc1nonc1-c1nc2ccccc2n1COc1ccccc1 : its melting point reads 171 to 173 °C

Noted for COc1cc([N+](=O)[O-])c2c3c(c4ccccc4nc13)C=CN2 : its melting point reads 220 to 223 °C

----------
observable: melting point

Example entries begin here.
CCOC(=O)C1CC(=O)NN1c1ncc(Cl)cc1Cl (configuration not stated)
105 to 108 °C
C[C@@H]1C(=O)C[C@H]2C[C@@H]1OO[C@@]2(C)/C=C\c1ccc(C#N)cc1
125 °C
CC(c1oc2ccccc2c(=O)c1-c1cccc(F)c1)n1nc(-c2ccc(F)c(O)c2)c2c(N)ncnc21 (configuration not stated)
241 to 244 °C
CCN(CC)C(=O)c1cc(OC)c(OC)cc1-c1c(C(=O)N(CC)CC)ccc2c1OCO2
148 to 149 °C
O=C(CN1CCN(C(=O)CCCCCS)CC1)Nc1nc2ccccc2s1
89 to 92 °C

Noted for Cc1c(C)c2c(c(C)c1NC(=O)c1ccccc1)C(c1ccc(C(C)C)cc1)C(C)(C)O2 (configuration not stated) : its melting point reads 218 to 220 °C

Noted for CCOC(=O)c1nc(O)sc1-c1ccncc1 : its melting point reads 204 to 206 °C

Noted for CCCc1c(OCCCCCC(=O)NCCSc2ccncc2)ccc(C(C)=O)c1O : its melting point reads 63 to 65 °C
